- Test system: MDA-N
- Method Summary: NCI tumour cell line growth inhibition, 48 h
Measured Attribute: TGI

Compound	Measured Attribute	Measured Value
O=S(=O)(CCCCl)SCCCCl	TGI	> 76.2 µM
O=C1COCCN1C(=O)c1ccccc1Cl	TGI	> 100 µM
N#CSc1ccc(S(N)(=O)=O)cc1	TGI	> 100 µM
COc1ccc(C(c2ccc3c(c2)OCO3)N2C(=O)CCC2C(=O)O)cc1 (configuration not stated)	TGI	> 100 µM
N#CC1(C#N)C(c2ccccc2)C=CC(c2ccc([N+](=O)[O-])cc2)C1(C#N)C#N (configuration not stated)	TGI	17 µM
COc1cc2c(cc1OC)C(=O)/C(=C/c1ccc([N+](=O)[O-])cc1)CC2	TGI	> 10 µM
CCOP(=O)(OCC)C(F)(F)Cc1cnc(C)c2c1COC(C)(C)O2	TGI	> 10 µM
N#CC(c1ccccc1)N(CCOCCOCCN(C(=O)c1cccc2ccccc12)C(C#N)c1ccccc1)C(=O)c1cccc2ccccc12 (configuration not stated)	TGI	> 100 µM

INPUT: Query: TGI; subject: O=c1[nH]c2cc([N+](=O)[O-])ccc2nc1/C=C(\O)c1ccc(Cl)cc1
OUTPUT: 78.7 µM

INPUT: Query: TGI; subject: CC1=C[C@@H]2[C@@H](CC(CO)=C[C@H]3[C@@H]4C(C)(C)[C@]4(OCC(C)C)[C@H](OCC(C)C)[C@@H](C)[C@]23O)C1=O
OUTPUT: 3.49 µM

INPUT: Query: TGI; subject: COC(=O)[C@@H]1OC(C)(c2ccccc2)O[C@H]1C(=O)OC
OUTPUT: > 100 µM

INPUT: Query: TGI; subject: COc1cccc(C2c3cc4c(cc3OC(N3CCCCC3)C2C)OCO4)c1OC (configuration not stated)
OUTPUT: 47 µM

INPUT: Query: TGI; subject: CC(C)N1[C@@H]2CCCC[C@H]2N(C(C)C)P1(=O)C(=O)/C=C/c1ccccc1
OUTPUT: 3.82 µM

INPUT: Query: TGI; subject: Cc1ccc2c(c1)C=CC(C#N)N2C(=O)Oc1ccccc1 (configuration not stated)
OUTPUT: > 100 µM

---

Overview of reported TGI across a group of compounds:
- Tested on: M14 melanoma
- Method Summary: NCI tumour cell line growth inhibition, 48 h

// worked examples, TGI included
Compound	Measured Value
O=C(OCc1ccccc1)N1CCCc2c(n(S(=O)(=O)c3ccccc3)c3ccccc23)C1	> 100 µM
CC(C)(C)c1cc(-c2nc3c(F)c(F)c(F)c(F)c3[nH]2)cc(C(C)(C)C)c1O	> 100 µM
Nc1nc(=O)n(CC(O)CO)s1 (stereo not given)	> 100 µM

Shift focus to the following entry.
INPUT: Report TGI for CC(C)C1COC(c2ccc3ccccc3c2-c2c(O[Si](C)(C)C(C)(C)C)ccc3ccccc23)=N1 (stereo not given) tested on M14 melanoma.
OUTPUT: 29.2 µM

---

- Tested on: BT-549 breast
- Method Summary: NCI tumour cell line growth inhibition, 48 h
Measured Attribute: TGI (µM)
Report the value in µM with no unit label.

// worked examples, TGI included
> print(dat)
                                   compound  measured.attribute  measured.value
1  Cc1ccc2c(c1)C=CC(C#N)N2C(=O)Oc1ccccc1 (configuration not stated)                 TGI            48.2
2  Cc1nc2sc(C(=O)Nc3cccc(Br)c3)c(N)c2cc1C(O)c1ccccc1 (configuration not stated)                 TGI            19.9
3  COc1ccc(C2=NN(C(=O)c3cccnc3)C(O)(c3cc(F)c(Cl)cc3Cl)C2)cc1OC (configuration not stated)                 TGI            41.5

INPUT: Query: TGI; subject: COc1ccc(C(SCC(N)C(=O)O)(c2ccc(OC)cc2)c2ccc(OC)cc2)cc1 (configuration not stated)
OUTPUT: 28

INPUT: Query: TGI; subject: COc1ccc(N=CN(C)C)c(C)c1
OUTPUT: 58.2

INPUT: Query: TGI; subject: COc1cc2c3c(n(CCCN4CCCC(O)C4)c(=O)c2cc1OC)-c1cc2c(cc1C3=O)OCO2 (configuration not stated)
OUTPUT: 3.21

Reference source: PubChem BioAssay (NCI)
